B1: KCNG1 (parent)
chain: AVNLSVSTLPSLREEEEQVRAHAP

variants of: B1; test: protein stability index of a GFP-peptide fusion (GPS, HEK-293T) (PSI 1-6); higher = more stable; conditions: c terminus: a fixed tail appended;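 note: lentivirally expressed fusions sorted by FACS into six bins by GFP to DsRed ratio, PSI derived from sequencing read proportions per bin multiplied by bin number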
measured_parameter: protein stability index
One number for each entry.

Here's what some known entries look like.
| changes | measured_parameter | observed_measurement |
| --- | --- | --- |
| P24E | protein stability index | 5.61 |
| E16N | protein stability index | 4.26 |
| H22I | protein stability index | 4.45 |
| V19G | protein stability index | 5.21 |
| L9Y | protein stability index | 4.47 |
| S7D | protein stability index | 4.8 |

Give protein stability index for each of the items listed below.
1. S7F
2. A21Q
3. T8N
4. S5I
5. P10K
6. E16A
7. E17I
8. Q18H

## Output
4.11
5.25
5.14
3.86
4.74
4.48
4.23
4.67

Give protein stability index for each of the items listed below.
1. T8M
2. S11R
3. V2A
4. S7I
5. V2L

## Output
[4.53, 4.88, 5.6, 3.67, 5.04]
